# Procedure details: NCI Yeast Anticancer Drug Screen. Data for the bub3 strain (AID 167)
# Setup conditions: S. cerevisiae bub3 mutant strain, at 50.0 µM, active compounds read high
Compounds without any hit were thinned out: in the full panel of roughly 79,000, 15% have a hit.
Give growth inhibition for every item shown.
Answers are plain numbers, in %.

// worked examples, growth inhibition included
CCOC(=O)C(C)c1nc2ccc(C(F)(F)F)cc2[nH]c1=O (centres undefined) :: 43.4
O=C1CC(NC(=O)c2ccccc2)C(=O)O1 (centres undefined) :: 4.3
CCCCCCCCCCCCC(Br)C(=O)OCC (centres undefined) :: -6.6
O=C1C=C(O)C(=C/C=C/C=C/c2c(O)cc(O)cc2O)C(O)=C1 :: 6.65
Cc1cc(C)cc(NC(N)=S)c1 :: 10.6

Would you mind listing growth inhibition for each of the following molecules?
1. O=C(O)c1ccccc1C(=O)c1ccc(Br)cc1
2. CCC(CC)(C1CCC(=O)CC1)C1CCC(=O)CC1
3. COc1ccc(-c2cc(-c3cc(-c4ccc(OC)cc4)on3)no2)cc1
4. Cc1nnc2n1N=C(c1ccccc1)C(c1ccccc1)S2 (centres undefined)
5. CC[n+]1cc([N+](=O)[O-])ccc1Cl
6. COc1ccc(N(C(=O)Nc2ccc(Cl)c(Cl)c2)c2ccccc2)cc1
7. CC1(C)C(=O)/C=C\C(=O)C(C)(C)C2=CC=C(O2)C(C)(C)C(=O)C(Br)C(Br)C(=O)C(C)(C)C2=CC=C1O2 (centres undefined)
8. O=C(c1ccccc1)C(C(c1ccccc1)N1CCOCC1)N1CCOCC1 (centres undefined)

-3.45
37.1
-35.5
57.4
12.4
14.3
-34.9
-5.7

Would you mind listing growth inhibition for each of the following molecules?
1. CC1OC(OC2C(OC(=O)[C@@H]3CC(C)(C)C[C@@H]4C5=CC[C@@H]6[C@@]7(C)C[C@H](O)[C@H](OC8OC(CO)C(O)C(O)C8O)[C@@](C)(CO)C7[C@H](O)C[C@@]6(C)[C@]5(C)C[C@@H](O)[C@H]43)OCC(O)C2O)C(O)C(O)C1O (some centres undefined)
2. Cc1ccc(NC(=O)COc2ccccc2)c(C)c1
3. C=CC1CC(NC(=O)OC)C(=O)O1 (centres undefined)
4. CC(=O)OC[C@]1(O)CC[C@@]23CC1C[C@@H]2CCC1C(C)(C)CCC[C@@]13C (some centres undefined)
5. O=C(O)CC(C(=O)O)c1ccccc1[N+](=O)[O-] (centres undefined)
6. O=C(N[C@H](CO)[C@H](O)c1ccc([N+](=O)[O-])cc1)C(Cl)Cl

1. 1
2. 28.3
3. 14.3
4. 67.7
5. -1.1
6. 35.6

* * *

Give growth inhibition for every item shown.
# Procedure details: NCI Yeast Anticancer Drug Screen. Data for the sgs1 mgt1 strain (AID 161);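 note: 0% = growth of cultures given vehicle only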
# Setup conditions: S. cerevisiae sgs1 mgt1 strain, at 50.0 µM, active compounds read high
Compounds without any hit were thinned out: in the full panel of roughly 79,000, 15% have a hit. Where a SMILES comes first, the peptide text is derived from it. [ ]: non-standard residue; d: D form. The star is where a group is joined. Hyp = O=C(O)[CH]1C[CH](O)CN1; Cbz = O=C(OCc1ccccc1)*
Answers are plain numbers, in %.

NC1=C(O)C(=O)C(c2ccc(C3OC(N)=C(O)C3=O)cc2)O1 (stereo unspecified) :: -18.6
NC(=O)CNC(=O)C1CC(O)CN1C(=O)C1CCCN1C(=O)OCc1ccccc1 (stereo not drawn) (Cbz-Pro-[Hyp]-Gly-NH2; configuration not given here) :: 1.55

Would you mind listing growth inhibition for each of the following compounds?
1. CC(=O)c1ccc2cc(Cl)ccc2c1
2. CN(C)c1ccccc1C(=O)N/N=C/c1ccc(F)cc1
3. CCCCOC(=O)NC(Nc1ccc(S(=O)(=O)Nc2ccc(OC)nn2)cc1)(C(F)(F)F)C(F)(F)F
4. OCC(O)C(O)C(O)c1nn(-c2ccccc2)c2nc3ccccc3nc12 (stereo unspecified)

1. 3.5
2. -6.55
3. -10.1
4. 3.4

Data provenance is PubChem BioAssay (NCI).
